- Test system: recombinant (R)-2,3-butanediol dehydrogenase, HB101 (pSE-PAD1) cell extract
- Protocol text: Substrate specificity of recombinant enzyme, reduction reaction
- Assay type: biochemical, Pichia angusta
- Conditions used: substrate 20 mM
Decision: HB101 (pSE-PAD1) activity beneath 0.01 U/mg gives T; HB101 (pSE-PAD1) activity meeting or exceeding 0.01 U/mg gives F.

Solved cases below.
-- ask Find out if reported HB101 (pSE-PAD1) activity for CC(=O)C(C)=O [2,3-butanedion] is less than 0.01 U/mg
-- reply F

-- ask CC(=O)CCO [4-hydroxy-2-butanone] , same question.
-- reply F

-- ask Please give the result for CC(=O)C(C)O (centres unmarked) [3-hydroxy-2-butanone] too.
-- reply F

-- ask Try this molecule too: CCC(C)=O [2-butanone]
-- reply T

Continuing:
-- ask Report whether reported HB101 (pSE-PAD1) activity is lower than 0.01 U/mg (strictly) for CC(=O)CO [Hydroxyacetone]
-- reply F

* * *

- Test system: E. coli HB101 cell-free extract prepared in the absence of plasmid
- Assay type: biochemical
- Conditions used: oxidation reaction; substrate 50 mM
Test readout: Host only activity (U/mg)
Give the value, in units of U/mg, as a plain number.

Here's what some known entries look like.
-- ask Can you share its Host only activity? I mean this molecule: C[C@H](O)CO [(S)-1,2-propanediol]
-- reply 0

-- ask Item: C[C@@H](O)[C@@H](C)O [(2R,3R)-2,3-butanediol]
-- reply 0

-- ask Next up: C[C@@H](O)CCO [(R)-1,3-butanediol]
-- reply 0

-- ask One more molecule: OC[C@H](O)CCl [(S)-3-chloro-1,2-propanediol]
-- reply 0.001

-- ask Then this molecule: C[C@@H](O)CO [(R)-1,2-propanediol]
-- reply 0

Please turn your attention to the following entry.
-- ask Recorded Host only activity of CC(O)C(C)O (stereo not drawn) [Meso-2,3-butanediol] , please.
-- reply 0

* * *

- Tested on: (R)-2,3-butanediol dehydrogenase
- Protocol text: Stereoselectivity of purified (R)-2,3-butanediol dehydrogenase
- Type: biochemical, Pichia angusta
Each entry below lists one item and its recorded Relative activity value.
Express the result in % but write the number alone.

Examples with their reported Relative activity follow.
-- ask I am curious: what Relative activity value has been reported for C[C@H](O)CO [(S)-1,2-propanediol] ?
-- reply 400

-- ask Please answer likewise for C[C@@H](O)CO [(R)-1,2-propanediol]
-- reply 2000

-- ask Also need C[C@@H](O)CO [(R)-2,3-propanediol] , thanks.
-- reply 6100

Consider the record given below.
-- ask Would you mind telling me what Relative activity value was observed for C[C@H](O)CO [(S)-2,3-propanediol] ?
-- reply 160

* * *

Entries and their measured Residual activity follow.
- Test system: (R)-2,3-butanediol dehydrogenase
- Protocol text: Behavior of (R)-2,3-butanediol dehydrogenase to reagents (residual glycerol dehydrogenase activity)
- Type: biochemical, Pichia angusta
- Conditions used: reagent 1 mM, 30° C. for 10 minutes; glycerol dehydrogenase activity
# number only, unit % dropped from output

Recorded Residual activity, per entry:
-- ask Under (R)-2,3-butanediol dehydrogenase: Residual activity value of c1cnc2c(c1)ccc1cccnc12 [o-phenanthroline] ?
-- reply 0

-- ask Also O=C(O)CN(CCN(CC(=O)O)CC(=O)O)CC(=O)O [EDTA, ethylenediaminetetraacetic acid] ?
-- reply 93

-- ask Try this compound next: c1ccc(-c2ccccn2)nc1 [2,2′-dipyridyl]
-- reply 0

Continue with the next compound.
-- ask Lab note: need Residual activity with (R)-2,3-butanediol dehydrogenase for entry [Cl-].[Li+] [lithium chloride] , please look it up.
-- reply 101
